Experiment: ACEA_AR_antagonist_AUC_viability: ACEA Biosciences xCELLigence Real-Time Cell Analysis on Androgen Receptor Antagonism for Viability (AID 2283776);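 further: 22Rv1 human prostate cancer cells growing on impedance electrode plates; area under impedance growth curve at 80 h after dosing as viability; hits lower the growth signal relative to DMSO meaning cytotoxicity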
Description: ACEA_AR_antagonist is a cell-based, single-readout assay that uses 22Rv1, a human prostate cancer cell line, with measurements taken at 80 hours after chemical dosing in a 384-well plate, although TO5 and TO6 (mc0.srcf) used a 96-well plate. Differences in plate size can be ignored given data normalization.ACEA_AR_80hr is one of two assay component(s) measured or calculated from the ACEA_ER assay. […]
Results filed as inconclusive are left out. The source made the active and inactive calls. How the source made its calls: active means hit-call score of the fitted dose curve at least 0.9, where 1 is the maximum; inconclusive means response in the unintended direction; inactive means score below 0.9.
Outcome codes: 1 for active, 0 for inactive

compound: CN=C=S
group: 0

compound: CSC(=O)c1c(C(F)F)nc(C(F)(F)F)c(C(=O)SC)c1CC(C)C
group: 1

compound: CC(C)N1C(=O)N(c2ccccc2)CSC1=NC(C)(C)C
group: 1

compound: COP(=S)(OC)Oc1ccc([N+](=O)[O-])c(C)c1
group: 1

compound: CC1(C)CCC(=Cc2ccc(Cl)cc2)C1(O)Cn1cncn1 (stereo not given)
group: 0

compound: CCNP(=S)(OC)O/C(C)=C/C(=O)OC(C)C (stereo not given)
group: 0

compound: CC1(C)C(C(=O)OC(C#N)c2cccc(Oc3ccccc3)c2)C1(C)C (stereo not given)
group: 1

compound: O=C(Nc1ccccc1-c1ccc(Cl)cc1)c1cccnc1Cl
group: 1

compound: CCOP(=S)(OCC)Oc1nc(Cl)n(C(C)C)n1
group: 0

compound: CCCCC(C#N)(Cn1cncn1)c1ccc(Cl)cc1 (stereo not given)
group: 1

###

read-out: matrix metalloproteinase-3 (MMP3), MMP3 (gene 4314); assay: LTEA_HepaRG_MMP3: Life Technologies and Expression Analysis (LTEA) Assay for matrix metalloproteinase-3 (MMP3) using HepaRG (AID 2283519); settings: mRNA level, 48 h; actives raise or lower the signal
Calls of active or inactive are those of the source. The calls were made as follows: active = hit-call score of the fitted dose curve at least 0.9, where 1 is the maximum; inactive = score below 0.9.

compound: CCOP(=O)(OCC)Oc1nc(Cl)c(Cl)cc1Cl
AC50: 62.7 µM (active)
//
compound: Cn1c(-c2ccccc2)cc(-c2ccccc2)[n+]1C
AC50: 88.9 µM (active)
//
compound: CS(=O)(=O)c1ccc(C(=O)C2C(=O)CCCC2=O)c([N+](=O)[O-])c1
AC50: inactive
//
compound: OC(c1ccc(Cl)cc1)(c1ccc(Cl)cc1)C(Cl)(Cl)Cl
AC50: 50 µM (active)
//
compound: Clc1cccc(C(Cl)(Cl)Cl)n1
AC50: inactive
//
compound: CNC(=O)Oc1cccc2ccccc12
AC50: inactive
//
compound: COC(=O)NS(=O)(=O)c1ccc(N)cc1
AC50: inactive
//
compound: CCSC(=O)N1CCCCCC1
AC50: inactive
//
compound: COCC(=O)N(c1c(C)cccc1C)C(C)C(=O)OC (stereo not given)
AC50: inactive
//
compound: O=C(Nc1ccccc1-c1ccc(Cl)cc1)c1cccnc1Cl
AC50: inactive
//
compound: Cc1cnc(C2=NC(C)(C(C)C)C(=O)N2)c(C(=O)O)c1 (stereo not given)
AC50: inactive
//
compound: Cc1nc(N(C)C)nc(OC(=O)N(C)C)c1C
AC50: inactive
//
compound: COCc1cnc(C2=NC(C)(C(C)C)C(=O)N2)c(C(=O)O)c1 (stereo not given)
AC50: inactive
//
compound: CCOc1nc(F)cc2nc(S(=O)(=O)Nc3c(Cl)cccc3Cl)nn12
AC50: 50 µM (active)
//
compound: CC1(C)CCC(=Cc2ccc(Cl)cc2)C1(O)Cn1cncn1 (stereo not given)
AC50: inactive
//
compound: N#Cc1c(Cl)cccc1Cl
AC50: inactive
//
compound: CC1(C)C(C(=O)OC(C#N)c2cccc(Oc3ccccc3)c2)C1(C)C (stereo not given)
AC50: inactive
//
compound: CC(C)N1C(=O)c2ccccc2NS1(=O)=O
AC50: inactive
//
compound: CCCN(CC)CC1COC2(CCC(C(C)(C)C)CC2)O1 (stereo not given)
AC50: inactive
//
compound: CNC(=O)N(C)c1nnc(C(C)(C)C)s1
AC50: inactive

The origin of these recorded values is PubChem BioAssay (EPA / NIEHS).
